# method notes: Biodistribution: organ distribution of F-18 signal in mice
# Format: in vivo, male NMRI mice
# study conditions: thyroid, 5 min post i.v. injection
Response key: Condition met means Organ distribution of F-18 signal, thyroid >= 3 % ID/g; Condition not met means Organ distribution of F-18 signal, thyroid < 3 % ID/g.

INSERT INTO assay_data (compound, class_assignment) VALUES
  ('O=C(NCC(=O)N1CCN(c2ccc(OCc3ccccc3)cc2)CC1)c1cccnc1[18F] [Example 12c]', 'Condition met'),
  ('O=C(NCC(=O)N1CCN(c2ccc(OCc3ccccc3)cc2)CC1)c1ccc([18F])nc1 [Example 10e]', 'Condition not met'),
  ('O=C(NCC(=O)N1CCN(c2ccc(OCc3ccccc3)cc2)CC1)c1ccnc([18F])c1 [Example 11c]', 'Condition not met'),
  ('O=C(NCC(=O)N1CCN(c2ccc(OCc3ccccc3)cc2)CC1)c1cccc(OCC[18F])c1', 'Condition met');
